These entries and their values trace back to the Human Domainome abundance scans (Beltran et al. 2025).

B1: WW domain-binding protein 4, residues 8 to 43; numbered along this chain, O75554 (parent)
chain: QPKKFCDYCKCWIADNRPSVEFHERGKNHKENVAKR

variants of: B1; experiment: abundance fitness (aPCA) (normalised: wild type 0, dead -1); higher = more abundant; growth selection in yeast, the domain comes from the species named; details: Homo sapiens
endpoint-label: abundance fitness
Answers are plain numbers.

Illustrative cases are given below, each with its answer.
mutation: V20S
number: -0.336

mutation: K4C
number: -0.453

mutation: A34T
number: 0.022

Respectfully, I request abundance fitness for each entry included below.
1. R36W
2. F5Y
3. C6S

Completion:
1. -0.29
2. -0.087
3. -0.615

Respectfully, I request abundance fitness for each entry included below.
1. R17L
2. R25P
3. Y8P
4. P18Y

Completion:
1: -0.015; 2: -0.428; 3: 0.343; 4: -0.194
